Value source: ChEMBL document CHEMBL1144032

# assay_target: C-C chemokine receptor type 2 (Homo sapiens)
# Sequence (P41597 whole entry): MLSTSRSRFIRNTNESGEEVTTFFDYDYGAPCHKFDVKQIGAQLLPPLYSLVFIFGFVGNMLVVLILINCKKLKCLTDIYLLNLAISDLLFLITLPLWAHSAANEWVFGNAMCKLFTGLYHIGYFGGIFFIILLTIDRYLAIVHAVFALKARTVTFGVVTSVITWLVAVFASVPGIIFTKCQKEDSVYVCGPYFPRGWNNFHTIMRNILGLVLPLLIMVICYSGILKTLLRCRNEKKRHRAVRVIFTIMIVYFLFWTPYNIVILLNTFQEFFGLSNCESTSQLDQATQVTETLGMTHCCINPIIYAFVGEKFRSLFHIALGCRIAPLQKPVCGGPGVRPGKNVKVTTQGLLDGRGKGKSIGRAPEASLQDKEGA
# method_notes: Displacement of [125I]MCP1 from human CCR2b in THP1 cells
# Type: cell-based, THP-1
Listed here are compounds together with their documented IC50.

What does the data say about its IC50? Entry: N#Cc1cccc(C(=O)NCC(=O)N[C@@H]2CCN(Cc3ccc(Cl)cc3)C2)c1
> 10 µM

Requested field: IC50. Item: O=C(CNC(=O)c1ccc(C(F)(F)F)cc1)N[C@@H]1CCN(Cc2ccc(Cl)cc2)C1
> 5 µM

IC50 for O=C(CNC(=O)c1ccccc1Cl)N[C@@H]1CCN(Cc2ccc(Cl)cc2)C1 ?
> 10 µM
